Test system: PKB Ser473 phosphorylation in Rat1-myr-HA-p110 alpha cells
Experiment: Reverse protein array assay, PKB Ser473 phosphorylation in Rat1-myr-p110 alpha cells
Format: cell-based
Details: 0.5 h, pAkt Ser473, 30 minutes compound incubation, read-out: p-PKB IC50
pIC50: −log10 of the molar value.
observable: pIC50

- CCn1cc(-n2c(=O)n(C)c3cnc4ccc(-c5ccc(CO)nc5)cc4c32)c(C)n1: 7.13
- CCN(C)c1ccc(-c2ccc3ncc4c(c3c2)n(-c2cn(CC)nc2C)c(=O)n4C)cn1: 7.92
- COCCN(C)C(=O)Cn1cc(-n2c(=O)n(C)c3cnc4ccc(-c5ccccc5)cc4c32)c(C)n1: 6.49
- CCNC(=O)c1cc(-c2ccc3ncc4c(c3c2)n(-c2cn(C)nc2C)c(=O)n4C)cnc1NC: 7.35
